Just for reference, paper PMC9090415 is where these values come from.

# Subject Of Test: bacteriophage T4 DNA polymerase (Enterobacteria phage T4)
# Construct: made in house
# Sequence (P04415 1-898): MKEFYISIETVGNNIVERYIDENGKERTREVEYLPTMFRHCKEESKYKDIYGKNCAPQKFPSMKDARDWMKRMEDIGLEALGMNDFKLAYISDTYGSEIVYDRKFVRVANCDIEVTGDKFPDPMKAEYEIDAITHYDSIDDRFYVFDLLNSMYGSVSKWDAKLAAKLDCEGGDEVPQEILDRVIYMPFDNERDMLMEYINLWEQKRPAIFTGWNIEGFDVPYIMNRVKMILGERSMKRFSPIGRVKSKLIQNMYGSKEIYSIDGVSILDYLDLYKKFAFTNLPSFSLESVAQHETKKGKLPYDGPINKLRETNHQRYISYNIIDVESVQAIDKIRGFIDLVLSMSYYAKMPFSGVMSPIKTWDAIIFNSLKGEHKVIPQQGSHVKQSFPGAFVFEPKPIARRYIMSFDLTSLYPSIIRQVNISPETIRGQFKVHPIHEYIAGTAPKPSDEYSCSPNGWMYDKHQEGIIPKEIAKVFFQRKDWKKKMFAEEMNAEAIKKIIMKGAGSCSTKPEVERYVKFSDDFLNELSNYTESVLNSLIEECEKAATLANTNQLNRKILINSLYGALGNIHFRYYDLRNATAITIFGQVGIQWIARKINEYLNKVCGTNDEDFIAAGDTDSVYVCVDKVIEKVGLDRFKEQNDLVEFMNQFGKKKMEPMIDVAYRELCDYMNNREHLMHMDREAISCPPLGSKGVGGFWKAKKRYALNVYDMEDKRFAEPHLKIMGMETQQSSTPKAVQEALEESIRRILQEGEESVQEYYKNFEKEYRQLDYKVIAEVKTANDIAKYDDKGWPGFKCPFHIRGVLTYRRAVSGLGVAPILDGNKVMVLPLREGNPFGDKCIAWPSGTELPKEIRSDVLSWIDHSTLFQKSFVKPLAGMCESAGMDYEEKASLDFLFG
# Procedure Text: Counter-screen against bacteriophage T4 DNA polymerase
# Assay type: biochemical
# Run Conditions: DRC-2; read at 10'; concentration 10
# Method: Codon-optimized, exonuclease-deficient Pf-apPOL was overexpressed in E. coli BL21 (DE3) and purified as described. The protein was dialysed against two, 1-liter changes of 20 mM Tris-HCl (pH 8.0), 400 mM NaCl, and 20% glycerol. […] Each compound was tested in a dose-response format to determine IC50 values. […] T4 DNA polymerase can be produced in large quantities, and is in the same family (B-family) as the replicative human DNA polymerases (α, δ, and ε)[20].
Endpoint Name: % inhibition T4 10' 10 (%)
Answer in %, number only, no unit symbol.

Below are worked cases with known answers.
Molecule	Unit Label	% inhibition T4 10' 10
O=C1CSC2=NC3=C(CCc4ccccc43)C(c3cccs3)N12 (centres unmarked)	%	6.37
CC(C)CC(C(=O)O)N1C(=O)C2C3C=CC(C2C1=O)C1C(=O)N(C(CC(C)C)C(=O)O)C(=O)C31 (centres unmarked)	%	10
Nc1cc(Oc2ccc(O)c(N)c2)ccc1O	%	-3.21

Inquiry: Please give the measured % inhibition T4 10' 10 for this molecule: `Cc1cc2[nH]c(C(=O)Nc3ccc(F)cc3)c(CN3CCOCC3)c2s1`
Reply text: 13

Inquiry: Fill in: % inhibition T4 10' 10 of `CC(=O)Nc1cc(C(=O)c2cccs2)nn(-c2ccc(Cl)cc2)c1=O` is ___
Reply text: 8
